Test system: Plasmodium falciparum
Test: In vitro antimalarial activity for DHFR wild-type, chloroquine and pyrimethamine-sensitive Plasmodium falciparum D6
Type: functional, organism-based
Measured IC50, listed per entry.

{"Molecule Smiles": "CC(C)/N=C(N)/N=C(/N)NOCCCOc1ccccc1OC(F)(F)F", "IC50": "> 2.5 µg/mL"}
{"Molecule Smiles": "N=C(NOCCCOc1ccc(OC(F)(F)F)cc1)NC(=N)NC1CC1", "IC50": "> 2.5 µg/mL"}
{"Molecule Smiles": "CC(C)NC(=N)NC(=N)NOCCCOc1ccc(OC(F)(F)F)cc1", "IC50": "> 2.5 µg/mL"}

====

Tested on: Plasmodium falciparum
Test: In vitro antimalarial activity for DHFR wild-type, chloroquine and pyrimethamine-sensitive Plasmodium falciparum D6
Format: functional, organism-based
Measured IC50, listed per entry.
Measured Quantity: IC50

{"Molecule Smiles": "[H]/N=C(\\N/C(=N/[H])Nc1ccc(Cl)cc1)NC(C)C", "Target": "Plasmodium falciparum", "Measured Quantity": "IC50", "Result": "> 5 µg/mL"}
{"Molecule Smiles": "CC(C)/N=C(N)/N=C(/N)NOCCCOc1ccc(OCC(F)(F)F)cc1", "Target": "Plasmodium falciparum", "Measured Quantity": "IC50", "Result": "> 2.5 µg/mL"}
{"Molecule Smiles": "CC(C)/N=C(N)/N=C(/N)NOCCCOc1ccc(C(F)(F)F)cc1", "Target": "Plasmodium falciparum", "Measured Quantity": "IC50", "Result": "> 2.5 µg/mL"}
